Molecular target: Endothelin receptor type B (Homo sapiens) (UniProt P24530)
Sequence (P24530 whole entry): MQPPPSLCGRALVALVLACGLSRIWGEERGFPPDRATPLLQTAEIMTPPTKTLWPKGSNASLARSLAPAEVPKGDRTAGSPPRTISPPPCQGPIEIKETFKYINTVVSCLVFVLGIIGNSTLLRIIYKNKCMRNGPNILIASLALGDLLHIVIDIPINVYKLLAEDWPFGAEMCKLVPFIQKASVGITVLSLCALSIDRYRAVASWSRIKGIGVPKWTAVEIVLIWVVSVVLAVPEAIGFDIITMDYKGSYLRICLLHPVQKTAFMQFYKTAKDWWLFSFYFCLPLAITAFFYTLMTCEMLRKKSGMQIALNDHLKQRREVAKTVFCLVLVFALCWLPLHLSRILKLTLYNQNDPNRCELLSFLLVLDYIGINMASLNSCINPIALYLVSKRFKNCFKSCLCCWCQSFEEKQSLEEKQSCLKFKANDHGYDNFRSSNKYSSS
Assay: Inhibition of [125I]ET1 binding to CHO cells expressing human Endothelin B receptor at a concentration of 1 uM
Assay type: cell-based
measured-property: inhibition (%)
Number in %, nothing else.

input: What value of measured inhibition is listed for CCOc1ccc2c(c1)[C@H](c1ccc(OC)cc1)N(CC(=O)O)[C@@H]2c1ccc2c(c1)OCO2 ?
output: 23

input: Let us now turn to CCOc1ccc2c(c1)[C@@H](c1ccc(OC)cc1OCC(=O)O)N(c1nn[nH]n1)[C@@H]2c1ccc2c(c1)OCO2
output: 17

input: Field entry: COc1ccc([C@@H]2c3cc(OC)ccc3[C@@H](c3ccc4c(c3)OCO4)N2CC(=O)O)cc1
output: 1

input: Quick one: CCOc1ccc2c(c1)[C@@H](c1ccc(OC)cc1OCCCC(=O)O)N(CC(=O)O)[C@@H]2c1ccc2c(c1)OCO2
output: 37

input: Moving on to CCOc1ccc2c(c1)[C@@H](c1ccc(OC)cc1OCC(C)(C)C(=O)O)N(CC(=O)O)[C@@H]2c1ccc2c(c1)OCO2
output: 1

input: Likewise for CCCOc1ccc2c(c1)[C@H](c1ccc(OC)cc1)N(CC(=O)O)[C@@H]2c1ccc(OC)cc1OCC(=O)O ?
output: 0

input: Check CCOc1ccc2c(c1)[C@@H](c1ccc(OC)cc1OCc1nn[nH]n1)N(CC(=O)O)[C@@H]2c1ccc2c(c1)OCO2 too.
output: 0

input: Next up: CCOc1ccc2c(c1)[C@H](c1ccc(OC)cc1OCC(=O)O)N(C(=O)C(=O)O)[C@@H]2c1ccc2c(c1)OCO2
output: 0

Entry source: ChEMBL document CHEMBL1134124
